molecular target: Chromo domain-containing protein 1 (Saccharomyces cerevisiae (strain ATCC 204508 / S288c) (Baker's yeast)) (UniProt P32657); experiment: ScCHD-1 Enzyme Inhibition Assay; type: functional; parameters: scale not given: in the data most compounds retested in dose-response had high values; conditions: 30 µM
Sequence (P32657 whole entry, the tested form may be a part): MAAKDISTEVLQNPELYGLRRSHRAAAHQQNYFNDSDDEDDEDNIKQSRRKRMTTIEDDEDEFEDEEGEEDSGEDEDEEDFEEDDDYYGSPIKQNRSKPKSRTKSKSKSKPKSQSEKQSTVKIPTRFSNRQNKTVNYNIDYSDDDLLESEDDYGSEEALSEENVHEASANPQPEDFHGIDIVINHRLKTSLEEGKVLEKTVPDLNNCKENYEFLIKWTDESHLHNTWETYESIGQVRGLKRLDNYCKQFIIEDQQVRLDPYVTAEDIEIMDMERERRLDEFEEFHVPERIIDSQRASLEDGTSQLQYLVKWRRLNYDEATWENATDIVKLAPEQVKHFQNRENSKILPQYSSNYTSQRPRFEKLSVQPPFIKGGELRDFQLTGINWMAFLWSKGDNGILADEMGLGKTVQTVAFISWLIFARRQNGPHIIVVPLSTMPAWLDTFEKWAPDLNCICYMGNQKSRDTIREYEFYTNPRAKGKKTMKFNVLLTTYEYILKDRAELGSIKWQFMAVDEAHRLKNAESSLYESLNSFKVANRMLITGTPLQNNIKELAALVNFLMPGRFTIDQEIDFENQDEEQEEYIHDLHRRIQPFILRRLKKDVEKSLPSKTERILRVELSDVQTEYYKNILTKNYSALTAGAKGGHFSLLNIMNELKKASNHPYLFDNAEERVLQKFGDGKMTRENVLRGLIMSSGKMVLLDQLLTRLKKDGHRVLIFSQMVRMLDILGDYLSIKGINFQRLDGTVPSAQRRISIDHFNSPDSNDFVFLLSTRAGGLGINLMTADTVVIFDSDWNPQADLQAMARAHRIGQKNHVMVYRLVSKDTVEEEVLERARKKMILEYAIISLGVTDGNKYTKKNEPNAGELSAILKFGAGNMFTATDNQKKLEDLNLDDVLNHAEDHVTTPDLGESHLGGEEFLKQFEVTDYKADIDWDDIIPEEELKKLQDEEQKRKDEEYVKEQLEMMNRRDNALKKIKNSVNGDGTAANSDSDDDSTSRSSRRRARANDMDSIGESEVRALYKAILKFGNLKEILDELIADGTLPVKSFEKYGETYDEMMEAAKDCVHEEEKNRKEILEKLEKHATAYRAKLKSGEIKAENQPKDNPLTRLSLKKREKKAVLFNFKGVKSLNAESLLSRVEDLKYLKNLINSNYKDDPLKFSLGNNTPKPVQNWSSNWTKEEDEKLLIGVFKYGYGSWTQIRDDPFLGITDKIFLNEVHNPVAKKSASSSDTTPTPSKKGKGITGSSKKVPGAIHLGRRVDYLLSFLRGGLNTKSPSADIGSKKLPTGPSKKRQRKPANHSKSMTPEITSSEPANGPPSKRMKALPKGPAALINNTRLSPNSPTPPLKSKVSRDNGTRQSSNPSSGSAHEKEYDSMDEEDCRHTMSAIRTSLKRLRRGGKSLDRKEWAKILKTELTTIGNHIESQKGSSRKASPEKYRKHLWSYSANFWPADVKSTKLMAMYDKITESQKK
Property Name: Percent Effect

Compound | Obs Value
CN(C)S(=O)(=O)N1CCN(C(=O)c2ccc3ccn(C)c3c2)CC1 | -5.25%
CC(C)n1ccnc1CN1CCCN(C(=O)c2cccnc2O)CC1 | -5.81%
COCCCNC(=O)N1CCCC(c2nncn2C)C1 (configuration not stated) | 2.53%
COCCCNC(=O)CN(C)C(=O)c1cc(C)sc1C | -1.76%
CC(C)Cc1cc(C(=O)NCc2nnc[nH]2)[nH]n1 | -1.14%
CC(NC(=O)NCC1(c2ccccc2)CCC1)c1nncn1C (configuration not stated) | -6.58%
CCc1nc(CCNC(=O)NC2CC2)sc1C | -6.36%

----------
Each item that follows carries a reported Percent Effect.
tested on: Trypanosoma cruzi; assay: Trypanosoma cruzi phosphomannomutase and mannose-1-phosphate guanylyltransferase assay; assay type: functional; design: scale not given: direction of the effect not stated beside the values; conditions: 10 µM

Molecule | System Tested | Unit Of Measure | Percent Effect
CC(=O)c1cccc(OCCCC(=O)N(C)Cc2cccc(O)c2)c1 | Trypanosoma cruzi | % | 0.193
Cc1ccc(S(=O)(=O)N2CCC3(CC(C(=O)NCC4CC4)=NO3)C2)cc1 (stereo unspecified) | Trypanosoma cruzi | % | -4.38
Cc1cc(=O)[nH]c(SCC(=O)N(C)CC2Cc3ccccc3CN2C)n1 (stereo unspecified) | Trypanosoma cruzi | % | -0.489
O=C(NCC1CC1)N1CCN(Cc2ccc3c(c2)OCCO3)CC1 | Trypanosoma cruzi | % | 3.08
COCC(c1cccc(C(F)(F)F)c1)N(C)C(=O)c1cc(C)no1 (stereo unspecified) | Trypanosoma cruzi | % | 0.564
Cc1cccnc1C(=O)N1CCCC(c2[nH]ncc2S(C)(=O)=O)C1 (stereo unspecified) | Trypanosoma cruzi | % | -4.54

----------
target: Proteasome subunit beta (Trypanosoma cruzi) (UniProt O96673); experiment: Trypanosoma cruzi proteasome chymotrypsin-like activity (TcProtChymo) assay.; type: functional; parameters: scale not given: in the data most compounds retested in dose-response had high values; conditions: 9.37 µM
Sequence (O96673 as listed by the source): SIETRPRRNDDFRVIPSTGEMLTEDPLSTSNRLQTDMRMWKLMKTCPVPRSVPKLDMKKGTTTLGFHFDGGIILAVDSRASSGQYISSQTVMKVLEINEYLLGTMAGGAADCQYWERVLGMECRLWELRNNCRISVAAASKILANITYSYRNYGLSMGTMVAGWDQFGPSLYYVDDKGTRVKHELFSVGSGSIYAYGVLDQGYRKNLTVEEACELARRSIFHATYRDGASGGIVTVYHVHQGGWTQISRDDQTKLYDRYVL
Measured Percent Effect values are reported for all entries that follow.

Molecule | Unit Of Measure | Percent Effect
O=C(Cn1cccnc1=O)NCCc1ccc2c(c1)OCCO2 | % | 18.9
CCc1nccn1C1CCCN(C(=O)c2ccc3nncn3c2)C1 (configuration not stated) | % | 2.03
COc1ccc2c(c1)CN(Cc1nc3ccsc3c(=O)[nH]1)CC2 | % | 2.05
CCC1CN(CCC(=O)N(C)C)CCN1CCOC (configuration not stated) | % | 5.04
Cn1cc(-c2nnn3c2COC(CNCc2nccs2)C3)cn1 (configuration not stated) | % | 11.6
O=C(COc1coc(CN2CCCCC2)cc1=O)NCc1ccccc1 | % | 18.5
COc1c(CNCc2ccc(CN(C)C)cc2)c(C(C)C)nn1C | % | 2.34

----------
tested on: Trypanosoma cruzi; test: Trypanosoma cruzi phosphomannomutase and mannose-1-phosphate guanylyltransferase assay; assay type: functional; set-up: scale not given: direction of the effect not stated beside the values; conditions: 10 µM

Molecule | System Tested | Percent Effect / %
Cc1ccc(NC(=O)c2cc(S(=O)(=O)N3CCCCC3)c[nH]2)cc1F | Trypanosoma cruzi | -5.03
CCN(CC)C1CCN(C(=O)NCc2nncn2CC)CC1 | Trypanosoma cruzi | 3.41
O=C(c1ccno1)N1CCC2(CC1)C(=O)N(CC1CC1)c1ccccc12 | Trypanosoma cruzi | -0.75
COCC1c2c(cnn2CC2CC2)CCN1Cc1ccc(OC)cc1 (stereo unspecified) | Trypanosoma cruzi | -0.772
Cn1c(CC2CCS(=O)(=O)C2)nnc1SCCOc1ccccc1F (stereo unspecified) | Trypanosoma cruzi | 2.64
c1cnn(CC2CCCCN2Cc2cn3ccsc3n2)c1 (stereo unspecified) | Trypanosoma cruzi | 9.67
CCOc1nnc(CN(C)CC2CCCN2c2cccnn2)s1 (stereo unspecified) | Trypanosoma cruzi | 3.41
CCc1nc(CN2CCN(C(=O)COCc3ccccc3)CC2)no1 | Trypanosoma cruzi | 4.4
Cc1nsc(N2CCCN(c3nc(C4CC4)ns3)CC2)n1 | Trypanosoma cruzi | 4.9
CCOCC1CN(C(=O)c2cscn2)Cc2nnn(CC3CC3)c21 (stereo unspecified) | Trypanosoma cruzi | 0.88
Cn1cc(CN2CCn3cc(CNC(=O)c4cccn4C)nc3C2)cn1 | Trypanosoma cruzi | -0.394
